# Test system: L1210 leukemia ip in BDF1 mice, survival T/C
# test description: NCI In Vivo Anticancer Drug Screen. Data for tumor model L1210 Leukemia (intraperitoneal) in B6D2F1 (BDF1) mice
# recorded conditions: endpoint: mean survival time; dose: 200.0 mg/kg/injection; schedule: Q04DX002 (ip); vehicle: saline with Tween-80; higher = longer survival
Toxic doses and inconclusive results are not listed.
measured metric: T/C

1. CC(NC(=O)C(C)(C)C)c1ccc(-c2ccccc2)cc1 (stereo unspecified) = 95 % of control
2. CCCOC(C)(C)CCC/C(C)=C/COc1ccc(CC)cc1 = 92 % of control
3. CP1(=O)CCC(Br)C1Br (stereo unspecified) = 91 % of control
4. CN(C)C(C(=O)O)c1ccccc1 (stereo unspecified) = 97 % of control
5. CCOC(=O)c1cc2ccccc2[nH]1 = 87 % of control
6. CC(C)n1cc(C(=O)c2ccccc2)cc1-c1ccccc1 = 89 % of control
7. CSCC(O)CSC = 93 % of control
8. O=[N+]([O-])c1ccc(N=Cc2ccc(Cl)cc2Cl)c(O)c1 = 120 % of control

Working through the 8 molecules below one at a time, give T/C for each.
1. CCOC(=O)/C(=C\c1ccc(N(C)C)cc1)c1nc2ccccc2[nH]1
2. O=C(c1ccc([N+](=O)[O-])cc1)c1ccc([N+](=O)[O-])cc1
3. Cc1cc(C)c(-c2cc(C(O)C3OC4OC(C)(C)OC4C4OC(C)(C)OC34)on2)c(C)c1 (stereo unspecified)
4. CCCCC(CCC)CCC
5. Cc1cnc(Cl)[nH]1 (tested in a mixture with another compound)
6. CNC(=S)NNC(=O)c1ccncc1
7. CC(=O)N1CN(C(C)=O)CN(C(C)=O)C1
8. OCCC#CCCOC1CCCCO1 (stereo unspecified)

["92 % of control", "90 % of control", "87 % of control", "94 % of control", "113 % of control", "100 % of control", "102 % of control", "103 % of control"]

----------
# Test system: L1210 leukemia ip in BDF1 mice, survival T/C
# test description: NCI In Vivo Anticancer Drug Screen. Data for tumor model L1210 Leukemia (intraperitoneal) in B6D2F1 (BDF1) mice
# recorded conditions: endpoint: mean survival time; dose: 100.0 mg/kg/injection; schedule: Q04DX003 (ip); vehicle: saline sonified; higher = longer survival
Toxic doses and inconclusive results are not listed.
Field: T/C. Provide a value for each of the molecules that follow.

Working through the 4 molecules below one at a time, give T/C for each.
1. COc1cc(Cc2nccc3cc(OC)c(OC)cc23)c([N+](=O)[O-])cc1OC
2. Clc1ncn[nH]1
3. O=C(CC(C(=O)c1ccccc1)N1CC1)c1ccccc1 (centres undefined)
4. CCOC(=O)/C(O)=C(\C=N\C(N)=O)C(=O)OCC

1. 106 % of control
2. 101 % of control
3. 92 % of control
4. 93 % of control

----------
# Test system: L1210 leukemia ip in BDF1 mice, survival T/C
# test description: NCI In Vivo Anticancer Drug Screen. Data for tumor model L1210 Leukemia (intraperitoneal) in B6D2F1 (BDF1) mice
# recorded conditions: endpoint: mean survival time; dose: 50.0 mg/kg/injection; schedule: Q01DX001 (ip); vehicle: other; higher = longer survival
Inconclusive results and toxic doses are left out.
measured metric: T/C

1) O=C(C[P+](c1ccccc1)(c1ccccc1)c1ccccc1)c1ccc(Br)cc1 = 100 % of control
2) CC(C)CC([NH-])C(=O)[O-].O=C(O)C(=O)O.[Co+3].[NH-]CCN(CC[NH-])CC[NH-] = 92 % of control
3) COc1cc(C=Nc2cc(Cl)cc(Cl)c2)ccc1N(CCCl)CCCl = 105 % of control

Continue with the compound presented below.
For the compound `CC(C)(C)OOC(=O)c1ccccc1` , what T/C is on record?
90 % of control
